assay: Cytotoxicity (MTT) against 3T3 cell line; format: cell-based, mouse; conditions: pure compounds; mouse fibroblast, 48 h; read-out: 3T3 Cell line CC50 (μM± SD)
Result Type: CC50 at 48 h

I am curious: what CC50 at 48 h value has been reported for C[C@]12C(=O)C=CCC1=CC[C@@H]1[C@@H]2CC[C@]2(O)C(=O)O[C@@]3(C)[C@H]4C[C@]5(C)[C@@H](CO[C@@]16O[C@@]32[C@H]5C6=O)C(=O)O4 [Compound 2, Physalin B] ?
10 µM

Recorded CC50 at 48 h for CC12CC3OC(=O)C1COC14OC5(C2C1=O)C(O)(CCC1C4CC2OC24CC=CC(=O)C14C)C(=O)OC35C (stereo not drawn) [Compound 3, 5β, 6β-epoxyphysalin B] , please?
0.72 µM

====

test system: L. tropica promastigotes; assay: Promastigote growth inhibition assay (MTT), L. tropica clinical isolates; assay type: cell-based, Leishmania tropica; details: Leishmania tropica, 72 h, read-out: L. tropica IC50 (μM± SD)
I'd be grateful if you could share measured IC50 for these entries.
Write the number in µM without appending the unit.

Notebook entry, L. tropica promastigotes assay: IC50 of C[C@@]12C[C@H]3OC(=O)[C@@H]1CO[C@@]14O[C@]5([C@H]2C1=O)[C@@](O)(CC[C@H]1[C@H]4C[C@@H](O)[C@@]2(O)CC=CC(=O)[C@]12C)C(=O)O[C@@]35C [Compound 9, Physalin D] = ?
55.2

Lab request: please report IC50 under test system L. tropica promastigotes for C[C@]12C(=O)C=CCC1=CC[C@@H]1[C@@H]2CC[C@]2(O)C(=O)O[C@@]3(C)[C@H]4C[C@]5(C)[C@@H](CO[C@@]16O[C@@]32[C@H]5C6=O)C(=O)O4 [Compound 2, Physalin B]
13.3

What value of IC50 on L. tropica promastigotes does CC12CC3OC(=O)C1COC14OC5(C2C1=O)C(O)(CCC1C4CC2OC24CC=CC(=O)C14C)C(=O)OC35C (stereo not drawn) [Compound 3, 5β, 6β-epoxyphysalin B] have?
18.5

Recorded IC50 for C[C@]12C(=O)C=CC=C1[C@@H](O)C[C@@H]1[C@@H]2CC[C@@]2(O)C(=O)O[C@@]3(C)[C@H]4C[C@]5(C)[C@@H](CO[C@@]16O[C@]23[C@H]5C6=O)C(=O)O4 [Compound 7, Physalin G] with L. tropica promastigotes, please?
19.5

====

experiment: Cytotoxicity (MTT) against BJ cell line; format: cell-based, human; settings: pure compounds; human fibroblast, 48 h; read-out: BJ cell line CC50 (μM± SD)
Exercise: for every item that follows, state its recorded CC50.
Just the number in µM, nothing appended.

May I ask what CC50 has been recorded for CCOC12CC=CC(=O)C1(C)C1CCC3(O)C(=O)OC4(C)C5CC6(C)C(COC7(OC34C6C7=O)C1CC2O)C(=O)O5 (stereo not shown) [Compound 4] ?
14.2

// returns reported CC50 for input CC12CC3OC(=O)C1COC14OC5(C2C1=O)C(O)(CCC1C4CC(O)C2(Cl)CC=CC(=O)C12C)C(=O)OC35C (stereo not shown) [Compound 5, Physalin H]
10.4

====

Answer each item with its documented L. tropica SI (CC50/ IC50).
system: L. tropica promastigotes; assay: Promastigote growth inhibition assay (MTT), L. tropica clinical isolates; type: cell-based, Leishmania tropica; settings: CC50 BJ fibroblast cell line / IC50 L. tropica
I only need the number, thanks.

Given the compound CC12CC3OC(=O)C1COC14OC5(C2C1=O)C(O)(CCC1C4CC2OC24CC=CC(=O)C14C)C(=O)OC35C (stereo not drawn) [Compound 3, 5β, 6β-epoxyphysalin B] , what is its reported L. tropica SI (CC50/ IC50)?
1.48

Which L. tropica SI (CC50/ IC50) value is on record for CC12CC3OC(=O)C1COC14OC5(C2C1=O)C(O)(CCC1C4CC(O)C2(Cl)CC=CC(=O)C12C)C(=O)OC35C (centres unmarked) [Compound 5, Physalin H] ?
1.08

Quick one: L. tropica SI (CC50/ IC50) for C[C@@H]1[C@H](O)[C@@H](C)/C=C/C=C/C=C/C=C/C=C/C=C/C=C/[C@H](O[C@@H]2O[C@H](C)[C@@H](O)[C@H](N)[C@@H]2O)C[C@@H]2O[C@](O)(C[C@@H](O)C[C@@H](O)[C@H](O)CC[C@@H](O)C[C@@H](O)CC(=O)O[C@H]1C)C[C@H](O)[C@H]2C(=O)O [Amphotericin B, reference compound] ?
4.69

// query L. tropica SI (CC50/ IC50) value for entry C=C1C(=O)OC2CC1(C)C1C(=O)C3(O)OC14C(O)(CCC1C3CC3OC35CC=CC(=O)C15C)C(=O)OC24C (stereo not drawn) [Compound 6, 5β, 6β-epoxyphysalin C]
4.20

For the compound shown here, C[C@]12C(=O)C=CCC1=CC[C@@H]1[C@@H]2CC[C@]2(O)C(=O)O[C@@]3(C)[C@H]4C[C@]5(C)[C@@H](CO[C@@]16O[C@@]32[C@H]5C6=O)C(=O)O4 [Compound 2, Physalin B] , give the reported L. tropica SI (CC50/ IC50).
0.8

All figures here come from paper PMC9704608.
